Attribution: patent US20230286970A1

Catalogue of compounds with associated residual percentage in RAT PLASMA
- assayInfo: Stability in rat plasma
- details: after 4 hours, 37° C.
quantityKind: residual percentage in RAT PLASMA (%)

{"compound": "Nc1nc2ccc(-c3cn(Cc4ccc(-c5nnc(C(F)F)o5)cn4)nn3)cc2[nH]1 [Compd. 30]", "quantityKind": "residual percentage in RAT PLASMA", "valueUnits": "%", "observed": 68}
{"compound": "NC(=O)c1cccc(-c2nnn(Cc3ccc(-c4nnc(C(F)F)o4)c(F)c3)n2)c1 [compound 89]", "quantityKind": "residual percentage in RAT PLASMA", "valueUnits": "%", "observed": 82}
{"compound": "CN(C)C(=O)c1cccc(-c2nnn(Cc3ccc(-c4nnc(C(F)F)o4)cc3)n2)c1 [compound 81]", "quantityKind": "residual percentage in RAT PLASMA", "valueUnits": "%", "observed": 87}
{"compound": "Nc1ccc(-c2nnn(Cc3ccc(-c4nnc(C(F)F)o4)cc3)n2)cn1 [compound 64]", "quantityKind": "residual percentage in RAT PLASMA", "valueUnits": "%", "observed": 70}
{"compound": "O=C1NCc2ccc(-c3nnn(Cc4ccc(-c5nnc(C(F)F)o5)c(F)c4)n3)cc21 [compound 97]", "quantityKind": "residual percentage in RAT PLASMA", "valueUnits": "%", "observed": 96}
{"compound": "Nc1nc2cc(-c3cn(Cc4ccc(-c5nnc(C(F)F)o5)cn4)nn3)ccc2s1 [Compd. 3]", "quantityKind": "residual percentage in RAT PLASMA", "valueUnits": "%", "observed": 80}
{"compound": "Cn1c(N)nc2cc(-c3nnn(Cc4ccc(-c5nnc(C(F)F)o5)cc4)n3)ccc21 [compound 11]", "quantityKind": "residual percentage in RAT PLASMA", "valueUnits": "%", "observed": 86}
{"compound": "Nc1ccc(-c2nc(Cc3ccc(-c4nnc(C(F)F)o4)cc3)no2)cn1 [compound 247]", "quantityKind": "residual percentage in RAT PLASMA", "valueUnits": "%", "observed": 81}
{"compound": "O=C1Nc2cc(-c3cn(Cc4ccc(-c5nnc(C(F)F)o5)cn4)nn3)ccc2NC12CCNCC2 [compound 41]", "quantityKind": "residual percentage in RAT PLASMA", "valueUnits": "%", "observed": 77}
{"compound": "O=C(Nc1cccc(-c2cn(Cc3ccc(-c4nnc(C(F)F)o4)cn3)cn2)c1)N1CCOCC1 [compound 264]", "quantityKind": "residual percentage in RAT PLASMA", "valueUnits": "%", "observed": 94}
{"compound": "CC[C@H](c1ccc(-c2nnc(C(F)F)o2)cc1)n1cc(-c2ccc(N)nc2)nn1 (stereo in doubt) [compound 194]", "quantityKind": "residual percentage in RAT PLASMA", "valueUnits": "%", "observed": 88}
{"compound": "COc1ccc(-c2nnn(Cc3ccc(-c4nnc(C(F)F)o4)cc3)n2)cc1OC [compound 128]", "quantityKind": "residual percentage in RAT PLASMA", "valueUnits": "%", "observed": 83}
{"compound": "Nc1ccc(-c2cn(Cc3ccc(-c4nnc(C(F)F)o4)cn3)nn2)cn1 [compound 5]", "quantityKind": "residual percentage in RAT PLASMA", "valueUnits": "%", "observed": 70}
{"compound": "O=C1NCc2ccc(-c3nnn(Cc4c(F)cc(-c5nnc(C(F)F)o5)cc4F)n3)cc21 [compound 57]", "quantityKind": "residual percentage in RAT PLASMA", "valueUnits": "%", "observed": 68}
{"compound": "Fc1cc(-c2nnc(C(F)F)o2)cc(F)c1Cn1cc(-c2cccs2)nn1 [compound 122]", "quantityKind": "residual percentage in RAT PLASMA", "valueUnits": "%", "observed": 84}
{"compound": "C[C@H](c1ccc(-c2nnc(C(F)F)o2)cn1)n1cc(-c2ccc(N)nc2)nn1 [Compd. 32]", "quantityKind": "residual percentage in RAT PLASMA", "valueUnits": "%", "observed": 67}
{"compound": "Nc1ccc(-c2cn(Cc3cc(F)c(-c4nnc(C(F)F)o4)cc3F)nn2)cn1 [compound 39]", "quantityKind": "residual percentage in RAT PLASMA", "valueUnits": "%", "observed": 71}
{"compound": "C[C@@H](c1ccc(-c2nnc(C(F)F)o2)cc1)n1cc(-c2ccc(N)nc2)nn1 [compound 255]", "quantityKind": "residual percentage in RAT PLASMA", "valueUnits": "%", "observed": 57}
{"compound": "FC(F)c1nnc(-c2ccc(Cn3cnc(-c4ccc(NC5=NCCN5)cc4)c3)cc2)o1 [compound 22]", "quantityKind": "residual percentage in RAT PLASMA", "valueUnits": "%", "observed": 96}
{"compound": "FC(F)c1nnc(-c2ccc(Cn3cc(-c4ccc5[nH]c(N6CCOCC6)nc5c4)nn3)cc2)o1 [Compd. 174]", "quantityKind": "residual percentage in RAT PLASMA", "valueUnits": "%", "observed": 80}
{"compound": "O=C1Nc2ccc(-c3cn(Cc4ccc(-c5nnc(C(F)F)o5)cn4)nn3)cc2C12CCNC2 (centres unmarked) [compound 28]", "quantityKind": "residual percentage in RAT PLASMA", "valueUnits": "%", "observed": 64}
{"compound": "CNc1ccc2cc(-c3cn(Cc4ccc(-c5nnc(C(F)F)o5)cn4)nn3)ccc2n1 [compound 34]", "quantityKind": "residual percentage in RAT PLASMA", "valueUnits": "%", "observed": 69}
{"compound": "Nc1nc2ccc(-c3cn(Cc4ccc(-c5nnc(C(F)F)o5)cc4)nn3)cc2s1 [compound 14]", "quantityKind": "residual percentage in RAT PLASMA", "valueUnits": "%", "observed": 83}
{"compound": "COc1ncccc1-c1cn(Cc2ccc(-c3nnc(C(F)F)o3)cn2)nn1 [compound 53]", "quantityKind": "residual percentage in RAT PLASMA", "valueUnits": "%", "observed": 78}
{"compound": "Nc1ccc(-c2cnn(Cc3ccc(-c4nnc(C(F)F)o4)cn3)c2)cn1 [compound 13]", "quantityKind": "residual percentage in RAT PLASMA", "valueUnits": "%", "observed": 75}
{"compound": "Nc1ccc(-c2cn(Cc3ccc(-c4nnc(C(F)F)o4)c(F)c3)nn2)cn1 [compound 15]", "quantityKind": "residual percentage in RAT PLASMA", "valueUnits": "%", "observed": 72}
{"compound": "CCCCC(c1ccc(-c2nnc(C(F)F)o2)cc1)n1cc(-c2ccc(N)nc2)nn1 (centres unmarked) [compound 235]", "quantityKind": "residual percentage in RAT PLASMA", "valueUnits": "%", "observed": 84}
{"compound": "O=C(c1cccc(-c2nnn(Cc3ccc(-c4nnc(C(F)F)o4)cn3)n2)c1)N1CCOCC1 [compound 69]", "quantityKind": "residual percentage in RAT PLASMA", "valueUnits": "%", "observed": 79}
{"compound": "O=C1Nc2ccc(-c3cn(Cc4ccc(-c5nnc(C(F)F)o5)cn4)nn3)cc2C12CCNC2 (single isomer, unassigned) [compound 274]", "quantityKind": "residual percentage in RAT PLASMA", "valueUnits": "%", "observed": 83}
{"compound": "NC(=O)c1ccc(-c2nnn(Cc3ccc(-c4nnc(C(F)F)o4)cc3)n2)cc1 [compound 116]", "quantityKind": "residual percentage in RAT PLASMA", "valueUnits": "%", "observed": 75}
{"compound": "CC(=O)Nc1cccc(-c2cn(Cc3ccc(-c4nnc(C(F)F)o4)cn3)nn2)c1 [compound 37]", "quantityKind": "residual percentage in RAT PLASMA", "valueUnits": "%", "observed": 83}
{"compound": "O=C1Nc2ccc(-c3cn(Cc4ccc(-c5nnc(C(F)F)o5)cn4)nn3)cc2NC12CCNCC2 [compound 36]", "quantityKind": "residual percentage in RAT PLASMA", "valueUnits": "%", "observed": 76}
